Molecular target: D2 receptor (Rattus norvegicus, UniProt P61169)
Construct: expressed in transfected cells
Sequence (P61169 whole entry): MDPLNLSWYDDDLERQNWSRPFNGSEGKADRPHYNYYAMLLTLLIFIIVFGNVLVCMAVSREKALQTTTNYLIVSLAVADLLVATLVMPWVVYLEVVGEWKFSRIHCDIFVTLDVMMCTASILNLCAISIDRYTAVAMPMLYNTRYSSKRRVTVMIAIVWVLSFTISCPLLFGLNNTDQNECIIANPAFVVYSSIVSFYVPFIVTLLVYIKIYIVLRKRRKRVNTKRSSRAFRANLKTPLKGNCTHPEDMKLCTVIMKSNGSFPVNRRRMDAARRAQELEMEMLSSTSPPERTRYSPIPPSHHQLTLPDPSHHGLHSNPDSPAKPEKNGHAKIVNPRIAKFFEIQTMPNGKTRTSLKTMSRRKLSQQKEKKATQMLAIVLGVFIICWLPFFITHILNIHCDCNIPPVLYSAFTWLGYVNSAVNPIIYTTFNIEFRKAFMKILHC
Assay: D2 receptor agonist evaluation (membrane binding with and without Gpp(NH)p)
Details: Table XV
Would you mind telling me the reported Ratio of +:- Gpp(NH)p of each entry?

[[record]]
molecule = "Oc1ccc2c(c1O)CC[C@@H]1[C@H]2CCCN1CCc1ccccc1 (relative stereo) [cis-9]"
test_target = "D2 receptor (Rattus norvegicus, UniProt P61169)"
readout_label = "Ratio of +:- Gpp(NH)p"
experimental_result = 1.84


Batch of 3 molecules: report Ratio of +:- Gpp(NH)p for each.
1. Oc1cccc2c1CC[C@H]1[C@H]2CCCN1CCc1ccccc1 (relative stereo) [trans-25]
2. Oc1ccc2c(c1O)CC[C@@H]1[C@@H]2CCCN1CCc1ccccc1 (relative stereo) [trans-9]
3. Oc1cccc2c1CC[C@H]1[C@@H]2CCCN1CCc1ccccc1 (relative stereo) [cis-25]

Ans.
1: 34.7; 2: 8.82; 3: 1.07
